biological target: Peroxisomal trans-2-enoyl-CoA reductase (Homo sapiens); assay: compound-induced PECR thermal stabilization – biophysical, human, DSF, SYPRO orange, NADP+ (AID 392); details: recombinant PECR, at 10 µM, protein 2 µM, buffer 10 mM HEPES, pH 7.5, NaCl 150 mM, NADP 200 µM, stronger effect = higher value
Experimental endpoint: Tm shift (Celsius)
Numbers only; they are read as Celsius.

Fill in: Tm shift of O=C(C1CCN(S(=O)(=O)c2ccc(Br)s2)CC1)N1CCN(C(c2ccccc2)c2ccc(Cl)cc2)CC1 (stereo unspecified) is ___
2.1

More entries:
Fill in: Tm shift of `O=c1oc2cc(O)ccc2c2oc3cc(O)ccc3c12` is ___
2.2

Fill in: Tm shift of `CCc1nnc(NS(=O)(=O)c2ccc(NC(=O)/C=C/c3ccc(F)cc3)cc2)s1` is ___
2.4

Fill in: Tm shift of NC(=O)c1ccc[n+](C2OC(COP(=O)(O)OP(=O)(O)OCC3OC(n4cnc5c(N)ncnc54)C(OP(=O)(O)O)C3O)C(O)C2O)c1 (stereo unspecified) is ___
2.2

Fill in: Tm shift of NC(=O)c1ccc[n+](C2OC(COP(=O)(O)OP(=O)(O)OCC3OC(n4cnc5c(N)ncnc54)C(O)C3O)C(O)C2O)c1 (stereo unspecified) is ___
2.2

Fill in: Tm shift of O=C(C1CCC(CNS(=O)(=O)c2ccc(Br)s2)CC1)N1CCN(C(c2ccccc2)c2ccc(Cl)cc2)CC1 (stereo unspecified) is ___
2.3
